target: DS-Cav1 (RSV F-protein, pre-form, in-house) (respiratory syncytial virus (RSV), UniProt P03420 26-513); test: ELISA, coated DS-Cav1, IgG titrated
Sequence (P03420 26-524): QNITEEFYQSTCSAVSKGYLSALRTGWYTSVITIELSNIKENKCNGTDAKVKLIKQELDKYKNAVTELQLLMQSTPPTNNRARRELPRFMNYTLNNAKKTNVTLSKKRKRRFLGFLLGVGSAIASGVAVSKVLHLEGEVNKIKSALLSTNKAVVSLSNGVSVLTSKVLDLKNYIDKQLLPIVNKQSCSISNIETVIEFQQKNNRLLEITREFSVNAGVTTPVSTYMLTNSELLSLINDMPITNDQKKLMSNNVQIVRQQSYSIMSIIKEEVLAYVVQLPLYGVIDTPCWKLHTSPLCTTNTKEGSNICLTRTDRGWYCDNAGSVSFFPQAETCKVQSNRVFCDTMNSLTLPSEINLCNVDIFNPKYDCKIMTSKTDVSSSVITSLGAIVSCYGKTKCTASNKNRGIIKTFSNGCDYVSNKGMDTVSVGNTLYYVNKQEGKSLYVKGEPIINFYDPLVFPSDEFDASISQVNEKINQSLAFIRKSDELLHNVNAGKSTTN
Below, each of the binders is paired with its reported Kd value.

3H8 (antibody, V domains shown, IgG made in Expi293; also called #16; 16) VH: EVQLVESGGGLVKPGGSLRLSCAGSGFTFSSYTMHWVRQAPGKGLEWVSSITGGSSYVDYSASVKGRFTISRDNAQSSLYLQMNSLRAEDTAVYYCARDDYGSGSYSNWFDPWGRGTTVTVSS VL: QPVLTQPLSASGTPGQRVTISCTGSSSNIGAGYDVHWYQQLPGRAPKLLIFANTNRPSGVPDRFSGSKSGTSASLAITGLQAEDEADYYCQSYDRSLSHVFGTGTKVTVLG ... ~0.51 nM

Sure, the documented Kd for 13H9 (antibody, V domains shown, IgG made in Expi293; also called #47; 47) VH: QVQLVQSGAEVKKPGASVKVSCKASGYTGYTFTDYGLSWVRQAPGHGLEWMGWITAYNGDTNYAQKFQDRLSVTTDISTSTAYMELRSLKSDDTAVYYCARHVFCSGDGCYSGLGSWGQGTLVTVSS VL: SYELIQPPSASGAPGQRVIISCSGSSSNVGSNTVNWYQQLPGTAPKLLIYDKNERPSGVPDRFSASKSGTSASLAISGLQSEDEADYYCAAWDDSLNGWVFGGGTELTVLG is ~0.61 nM

Sure, the documented Kd for 2H11 (antibody, V domains shown, IgG made in Expi293; also called #23; 23) VH: QVQLVQSGGGLVKPGGSLRLSCAASGFTFTSYRMHWVRQAPGKGLEWVSSITGGGNYIEYADSVKGRFTISRDNAKNSLDLQMNSLRAEDTAIYYCARDMYGLGSYYSPNYFDPWGQGTTVTVSS VL: QSVLTQPPSVSGAPGQRVTISCTGSSSNIGAGYDVHWYQQLPGRAPKLLIFANTNRPSGVPDRFSGSKSGASASLAISGLQAEDEAHYYCQSYDRSLNVVFGGGTELTVLG is ~0.45 nM
